Target: APOL1
Conditions: ASO, A431, 2 µM
After the bases stand the sugars from the 5' end (letter, count) and the backbone: PS all phosphorothioate, else s phosphorothioate and o phosphodiester by linkage. Methylation of C is not given here. e = 2'-O-(2-methoxyethyl) (MOE); k = constrained ethyl (cEt); d = 2'-deoxy (DNA)
MEASURED_PROPERTY: target mRNA inhibition (%)
Give bare numbers, in %.

Sample records with target mRNA inhibition:
>>> observed_value("GAAGATTGGCTCTGGC (sugars kdddddkekekddddd, PS)")
44
>>> observed_value("GTTCAAAAGCAGCATT (sugars k3 d5 k3 d5, PS)")
90
>>> observed_value("CGTCAATATATTCTTT (sugars kddddkekekeddddd, PS)")
96

Here are 7 sequences. What values of target mRNA inhibition were reported for them?
1. GTTCAAAAGCAGCATT (sugars kkddddekekeddddd, PS)
2. GCTAATTTTCTGACTG (sugars kddddkekekeddddd, PS)
3. GGAATTATGGAATTGC (sugars k2 d4 e3 k2 d5, PS)
4. CATTCAGAATTTCCAC (sugars kkkddddkekekdddd, PS)
5. CGTCAATATATTCTTT (sugars kekddddeekkddddd, PS)
6. CTTTAAACTCAGGTGA (sugars kkddddkekekddddd, PS)
7. CATTCAGAATTTCCAC (sugars kkddddkdkdkddddd, PS)

82
88
99
65
93
82
84

---

Exercise: for every item that follows, state its recorded target mRNA inhibition.
Target: APOL1
Conditions: ASO, A431, 2 µM
After the bases stand the sugars from the 5' end (letter, count) and the backbone: PS all phosphorothioate, else s phosphorothioate and o phosphodiester by linkage. Methylation of C is not given here. e = 2'-O-(2-methoxyethyl) (MOE); k = constrained ethyl (cEt); d = 2'-deoxy (DNA)
Answers are plain numbers, in %.

Sample records with target mRNA inhibition:
>>> observed_value("GAAGATTGGCTCTGGC (sugars kkdddddkekeddddd, PS)")
70
>>> observed_value("TCTATTAGAGGGCTAG (sugars k2 d4 e3 k2 d5, PS)")
67
>>> observed_value("GTTATGAAATTATTGG (sugars k3 d4 k3 e1 d5, PS)")
96
>>> observed_value("CACATCATTGGGTTAT (sugars kkddddkdkdkddddd, PS)")
79

Here are 2 sequences. What values of target mRNA inhibition were reported for them?
1. TTATTCTCATGGTACA (sugars kkddddekekeddddd, PS)
2. ATTTCTTGATGTGGTG (sugars kkddddkekekkdddd, PS)

[51, 69]

Here are 4 sequences. What values of target mRNA inhibition were reported for them?
1. GAGTATTGTTTTTGTG (sugars k2 d4 e3 k2 d5, PS)
2. GTATTTCTTGATGTGG (sugars kkddddekekeddddd, PS)
3. CTTTATACCAGTGTCT (sugars kddddkekekeddddd, PS)
4. CTTTATACCAGTGTCT (sugars kdddddkekekddddd, PS)

1: 97; 2: 96; 3: 92; 4: 89

---

Target: DGAT2
Details: ASO, HepG2, 0.12 µM
After the bases stand the sugars from the 5' end (letter, count) and the backbone: PS all phosphorothioate, else s phosphorothioate and o phosphodiester by linkage. Methylation of C is not given here. e = 2'-O-(2-methoxyethyl) (MOE); d = 2'-deoxy (DNA)
Exercise: for every item that follows, state its recorded target mRNA inhibition.
Answers are plain numbers, in %.

Sample records with target mRNA inhibition:
>>> observed_value("GTCCTGGAGGGCGGAGAGGA (sugars e5 d10 e5, PS)")
32
>>> observed_value("CTTGGGTGTGTTCCAGTCAA (sugars e5 d10 e5, PS)")
5
>>> observed_value("TAGGGCACCAGCCCCCAGGT (sugars e5 d10 e5, PS)")
32
>>> observed_value("GAGCTCAGAGACTCAGCCGC (sugars e3 d14 e3, PS)")
89
>>> observed_value("GCAGCCTGGACAAGTCCTGC (sugars e2 d13 e5, PS)")
77
>>> observed_value("GATAGCATTGCCACTCCCAT (sugars e2 d13 e5, PS)")
62
>>> observed_value("GTAGCTGCTTTTCCACCTTG (sugars e5 d10 e5, PS)")
43
>>> observed_value("ACAGGGCAGATACCTCCAGA (sugars e5 d10 e5, PS)")
58
>>> observed_value("CCCAGTTTCGGACCCACTGT (sugars e2 d13 e5, PS)")
70
>>> observed_value("CATTCTTTGAAAGCAAATAG (sugars e5 d10 e5, PS)")
15

Here are 4 sequences. What values of target mRNA inhibition were reported for them?
1. AGGACAGGGCAGACACACCT (sugars e5 d10 e5, PS)
2. CTCAGAGACTCAGCCGCACC (sugars e2 d13 e5, PS)
3. TGGTCTTGTGCTTGTCGAAG (sugars e5 d10 e5, PS)
4. TTCTTTTAAATAACCCACAG (sugars e5 d10 e5, PS)

44
43
41
8

Here are 6 sequences. What values of target mRNA inhibition were reported for them?
1. GTTTCGGACCCACTGTGACC (sugars e2 d13 e5, PS)
2. TGGACAAGTCCTGCCCATCT (sugars e2 d13 e5, PS)
3. TCATTTCATAGATGAGGAGA (sugars e5 d10 e5, PS)
4. GGAACTTCTTCTGGACCCAT (sugars e5 d10 e5, PS)
5. AAGATATAGTTCCTGGTGGT (sugars e5 d10 e5, PS)
6. AGGAGCCCTCCTCGAAGATC (sugars e5 d10 e5, PS)

1. 70
2. 51
3. 34
4. 36
5. 41
6. 31

---

Target: KRAS
Conditions: ASO, A431, 2 µM
After the bases stand the sugars from the 5' end (letter, count) and the backbone: PS all phosphorothioate, else s phosphorothioate and o phosphodiester by linkage. Methylation of C is not given here. e = 2'-O-(2-methoxyethyl) (MOE); k = constrained ethyl (cEt); d = 2'-deoxy (DNA)
Exercise: for every item that follows, state its recorded target mRNA inhibition.
Numbers only, in %.

>>> observed_value("AAAAATTAATGTCTTG (sugars k3 d10 k3, PS)")
20
>>> observed_value("TCCAGTGATACTTTCA (sugars kkddddddddddkeke, PS)")
39
>>> observed_value("AACCATTCAAAGTTCA (sugars k3 d10 k3, PS)")
35
>>> observed_value("CAGACTTGAAAAGTGT (sugars k3 d10 k3, PS)")
24
>>> observed_value("ATATCCACAGCAGCAG (sugars k3 d10 k3, PS)")
39

Here are 5 sequences. What values of target mRNA inhibition were reported for them?
1. ATTAGTGATTAGGTCA (sugars k3 d10 k3, PS)
2. ATGGTGTAACATAGGT (sugars kkkdddddddddkeke, PS)
3. AGTGTGACTCAGTTAA (sugars kkddddddddddkeke, PS)
4. AGTGTGACTCAGTTAA (sugars k3 d9 k3 e1, PS)
5. GTAAAAGCTAACAGTC (sugars k3 d10 k3, PS)

55
43
41
15
21

Quick one: target mRNA inhibition of TCCATTTATGTGACTA (sugars kkkddddddddkekek, PS) ?
0

---

Molecular target: MALAT1
Conditions: ASO, A431, 0.005 µM
After the bases stand the sugars from the 5' end (letter, count) and the backbone: PS all phosphorothioate, else s phosphorothioate and o phosphodiester by linkage. Methylation of C is not given here. k = constrained ethyl (cEt); d = 2'-deoxy (DNA)
Label Yes when target mRNA inhibition is at or above 20%; otherwise label No.

>>> group_label("GCTGCATCGAGGTGAG (sugars k3 d10 k3, PS)")
"Yes"
>>> group_label("CACCCTCTAAGAGACA (sugars k3 d10 k3, PS)")
"No"
>>> group_label("CAGCACATCATGCTAT (sugars k3 d10 k3, PS)")
"No"

# check: target mRNA inhibition of TCCGCTCAAATCCTGA (sugars k3 d10 k3, PS) is greater than or equal to 20%
Yes

What would you report for CAGGAGTGCCAACCAC (sugars k3 d10 k3, PS) ?
No

What would you report for TCCCTATATAAGGTCA (sugars k3 d10 k3, PS) ?
No

What would you report for CCCACCCTCTAAGAGA (sugars k3 d10 k3, PS) ?
No

What would you report for CTAGGGAAAAGTGGTT (sugars k3 d10 k3, PS) ?
No

What would you report for ATCCCTAACATGCAAT (sugars k3 d10 k3, PS) ?
Yes

---

Exercise: for every item that follows, state its recorded target mRNA inhibition.
Biological target: IRF5
Details: ASO, KARPAS-229, 4 µM
After the bases stand the sugars from the 5' end (letter, count) and the backbone: PS all phosphorothioate, else s phosphorothioate and o phosphodiester by linkage. Methylation of C is not given here. e = 2'-O-(2-methoxyethyl) (MOE); k = constrained ethyl (cEt); d = 2'-deoxy (DNA)
Answers are plain numbers, in %.

Sample records with target mRNA inhibition:
>>> observed_value("AGATGGTGTTATCTCC (sugars kkddddddddkekekk, PS)")
0
>>> observed_value("CTTCTGCAGGGAGTCA (sugars k3 d9 k3 e1, PS)")
0
>>> observed_value("ACTGACACAGGCGGAT (sugars kkdddddddddkdkdk, PS)")
6
>>> observed_value("GGTGTATTTCCCTGTC (sugars kdddddddddkekeke, PS)")
0
>>> observed_value("ACCACTGTGTACCCCA (sugars kdddddddddkekeke, PS)")
40

Here are 8 sequences. What values of target mRNA inhibition were reported for them?
1. GAGACGAGCAAAGGGT (sugars k3 d10 k3, PS)
2. GTCTTGACCTCCCGCT (sugars kkddddddddkekekk, PS)
3. CTTGGTCTTGACCTCC (sugars kkkddddddddkdkdk, PS)
4. CTTGGTCTTGACCTCC (sugars kkkddddddddkekek, PS)
5. ATTTCTGCTCCAGGTT (sugars kdddddddddkekeke, PS)
6. AGGTTCTTGGACTCTC (sugars kddddddddddkekek, PS)
7. GGTTCTTGGACTCTCA (sugars kkdddddddddkekek, PS)
8. GAGTAATAGGAGTGAG (sugars k3 d10 k3, PS)

1: 40; 2: 26; 3: 19; 4: 1; 5: 13; 6: 34; 7: 0; 8: 33

Here are 2 sequences. What values of target mRNA inhibition were reported for them?
1. GCATTCCATATACACA (sugars kdddddddddkekeke, PS)
2. GCATTCCATATACACA (sugars kkddddddddkekekk, PS)

1: 34; 2: 0

Here are 8 sequences. What values of target mRNA inhibition were reported for them?
1. AAAGGGTGAGTAGGAC (sugars k3 d10 k3, PS)
2. AGGAGTGAGACGAGCA (sugars kekdddddddddeekk, PS)
3. CAGGTTCTTGGACTCT (sugars kkddddddddkekekk, PS)
4. GAGTCTCAAACCAGGG (sugars kdddddddddkekeke, PS)
5. TGAGTCATGGAGCTGAG (sugars k2 d9 e3 k2 d1, PS)
6. ATCACCACTGTGTACC (sugars kkddddddddkekekk, PS)
7. CTTGGTCTTGACCTCC (sugars kkddddddddddkeke, PS)
8. GTTCTTGGACTCTCAA (sugars k2 d8 e4 k2, PS)

24
22
0
6
16
0
39
8

Here are 5 sequences. What values of target mRNA inhibition were reported for them?
1. GGAGTGAGACGAGCAA (sugars kkkddddddddkekek, PS)
2. GTTATCTCCGTCCTGG (sugars kkdddddddddkekek, PS)
3. GTCTTGACCTCCCGCT (sugars k2 d8 e4 k2, PS)
4. GGTCTTTGAGGTCTGG (sugars kkddddddddkekekk, PS)
5. CACCACTGTGTACCCC (sugars kdddddddddkekeke, PS)

[5, 0, 34, 52, 0]

Here are 7 sequences. What values of target mRNA inhibition were reported for them?
1. TCCAATTTTGCATTCC (sugars kkkddddddddkdkdk, PS)
2. GGTCTTGACCTCCCGC (sugars kddddddddddkekek, PS)
3. ATTTGCCTTCTGCAGG (sugars k3 d10 k3, PS)
4. AGCTTGGTCTTGACCT (sugars kekdddddddddeekk, PS)
5. TGCACTGACACAGGCG (sugars kkddddddddddkeke, PS)
6. GAGTCATGGGCTGAGG (sugars k2 d9 e3 k2, PS)
7. AGGAGTGAGACGAGCA (sugars kkdddddddddkekek, PS)

32
37
0
38
16
30
36

Here are 4 sequences. What values of target mRNA inhibition were reported for them?
1. GTGAGTCTCAAACCAG (sugars kkdddddddddkekek, PS)
2. TTGTCTAGTGTCATGG (sugars kkdddddddddkekek, PS)
3. CTTGGTCTTGACCTCC (sugars kkddddddddkekekk, PS)
4. AAGGGCACAGCGCAGG (sugars kkddddddddkekekk, PS)

1: 0; 2: 24; 3: 0; 4: 0

Here are 5 sequences. What values of target mRNA inhibition were reported for them?
1. ATGAGTCATGGGCTGA (sugars kkdddddddddkekek, PS)
2. CTTGGTCTTGACCTCC (sugars k3 d9 k3 e1, PS)
3. AGATGGTGTTATCTCC (sugars kkdddddddddkekek, PS)
4. GTCTGGCCCTTTTGGA (sugars kkdddddddddkekek, PS)
5. TCTGCAGGGAGTCAGA (sugars k3 d10 k3, PS)

0
6
0
0
0
